The values you see were collected from PubChem BioAssay (EPA / NIEHS).

Read-out: Lipase C (LIPC), LIPC (gene 3990)
Experiment: LTEA_HepaRG_LIPC: Life Technologies and Expression Analysis (LTEA) Assay for Lipase C (LIPC) using HepaRG (AID 2283514)
Details: mRNA level, 48 h; actives raise or lower the signal
Method: LTEA_HepaRG is a cell based, multiplexed-readout assay that uses HepaRG, a human liver cell line, with measurements taken at 48 hours after chemical dosing on a 96-well plate.LTEA_HepaRG_LIPC is one of 102 assay component(s) measured in the LTEA HepaRG cell culture assay. It is a marker of Steatosis.Data from the assay component LTEA_HepaRG_LIPC was analyzed into 1 endpoint. […]
The source made the active and inactive calls. The calls were made as follows: active = hit-call score of the fitted dose curve at least 0.9, where 1 is the maximum; inactive = score below 0.9.
Outcomes: true (1) = active, false (0) = inactive

> print(dat)
                                    compound  classlabel
 1  CC(C)NCC(O)c1ccc(O)c(O)c1 (stereo not given)    true (1)
 2                        C/C=C/c1ccc(OC)cc1   false (0)
 3              O=C1c2c(O)cccc2Cc2cccc(O)c21   false (0)
 4                      CN(C)CCCN(C)CCCN(C)C   false (0)
 5                          C/C=C/C=C/C(=O)O   false (0)
 6                          CC(C)(C)c1ccccc1   false (0)
 7  COC(=O)[C@H]1[C@H]2C[C@@H]3c4[nH]c5cc(OC)ccc5c4CCN3C[C@H]2C[C@@H](OC(=O)c2cc(OC)c(OC)c(OC)c2)[C@@H]1OC    true (1)
 8  CC(=O)OC1CC(C)OC(C)O1 (stereo not given)   false (0)
 9  CCCCc1nc2cccnc2n1Cc1ccc(-c2ccccc2-c2nnn[nH]2)cc1   false (0)
10  CCCC[C@H]1CN(CC2CCOCC2)C(=O)OC12CCN(C1(C)CCN(C(=O)c3c(C)ncnc3C)CC1)CC2   false (0)
11                                NCCOCCOCCN   false (0)
12                   NC(=Nc1ccccc1)Nc1ccccc1   false (0)
13                                      NC=O   false (0)
14                  CCCCCCCCCC[N+](C)(C)[O-]   false (0)
15                                O=C1CCCCC1   false (0)
